test.details: KKLEB cell viability reduction – uHTS, fluorescence assay plates, cytotoxicity control for CF NF-kB inhibitor project, primary screen (AID 602141)
measurement.setup: KKLEB CF airway cells viability, ATPlite luminescence, overnight; at 5 µM; cells stimulated with P. aeruginosa culture filtrate
In all, about 360,000 compounds went through this assay and about 1,300 (0.36%) were called active.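 How the source made its calls: active means corrected activity change at or below -50% at 5 µM; inactive means the rest.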 Only a selection was taken, and actives are over-represented in it overall.
Outcomes you can answer with include only these: active, inactive

Short answer needed: outcome of this test for O=C(NCC(F)(F)F)c1ccc(S(=O)(=O)NCCc2ccc3c(c2)OCCO3)cc1 ?
inactive

What do we get for O=C(NC(Nc1nc2ccc([N+](=O)[O-])cc2s1)(C(F)(F)F)C(F)(F)F)c1ccccc1 ?
active

And then COc1ccc(/C=C/C(=O)NC(=S)N2CCCC(C(N)=O)C2)cc1 (stereo not given) , what is it?
inactive

Entry COc1cccc(NC(=S)N(Cc2ccc(C)cc2)Cc2ccccn2)c1 please
inactive
